Collected IC50 values appear next to each entry.
ASSAY_SYSTEM: Tyrosine-protein kinase ABL1 (Homo sapiens)
Sequence (P00519 whole entry): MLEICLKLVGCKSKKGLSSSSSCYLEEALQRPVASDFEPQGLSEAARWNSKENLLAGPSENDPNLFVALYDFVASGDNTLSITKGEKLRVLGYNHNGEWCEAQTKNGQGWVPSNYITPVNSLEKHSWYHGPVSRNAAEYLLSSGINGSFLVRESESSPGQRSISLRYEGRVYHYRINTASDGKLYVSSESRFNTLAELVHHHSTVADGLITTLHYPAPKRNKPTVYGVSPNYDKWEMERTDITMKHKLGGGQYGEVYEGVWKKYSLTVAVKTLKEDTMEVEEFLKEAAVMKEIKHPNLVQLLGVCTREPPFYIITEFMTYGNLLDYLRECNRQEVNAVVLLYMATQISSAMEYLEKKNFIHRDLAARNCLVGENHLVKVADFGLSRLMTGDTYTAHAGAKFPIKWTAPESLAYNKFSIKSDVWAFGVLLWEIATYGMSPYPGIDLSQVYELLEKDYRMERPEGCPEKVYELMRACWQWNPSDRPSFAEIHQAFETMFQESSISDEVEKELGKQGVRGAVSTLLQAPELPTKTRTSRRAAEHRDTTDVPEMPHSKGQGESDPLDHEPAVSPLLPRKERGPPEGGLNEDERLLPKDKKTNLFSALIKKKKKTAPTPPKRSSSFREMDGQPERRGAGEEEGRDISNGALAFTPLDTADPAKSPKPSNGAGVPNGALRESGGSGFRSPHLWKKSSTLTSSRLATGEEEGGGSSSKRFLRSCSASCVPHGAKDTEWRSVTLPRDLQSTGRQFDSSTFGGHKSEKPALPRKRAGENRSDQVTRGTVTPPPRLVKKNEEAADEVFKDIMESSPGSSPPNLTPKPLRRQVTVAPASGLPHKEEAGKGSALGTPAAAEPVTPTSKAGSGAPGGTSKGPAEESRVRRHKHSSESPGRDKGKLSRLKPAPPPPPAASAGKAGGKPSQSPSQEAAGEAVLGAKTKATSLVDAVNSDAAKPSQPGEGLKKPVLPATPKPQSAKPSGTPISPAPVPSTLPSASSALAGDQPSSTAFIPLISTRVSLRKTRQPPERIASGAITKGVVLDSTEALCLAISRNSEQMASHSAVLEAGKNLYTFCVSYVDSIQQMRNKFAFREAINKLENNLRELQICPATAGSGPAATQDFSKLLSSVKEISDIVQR
MEASUREMENT_NOTES: Inhibition of recombinant Abl kinase (unknown origin) expressed in Sf9 cells using GGEAIYAAPFKK as substrate in presence of [gamma33P]ATP

Use these answered entries as a reference point.
Cc1nn(C)c2nnc(Nc3ccc(S(=O)(=O)NC(CO)C(C)C)cc3)nc12 (stereo not drawn) | > 50 µM
Cc1nn(C)c2nnc(Nc3ccc(S(=O)(=O)N4CCN(C)CC4)cc3)nc12 | > 50 µM

We now examine a further compound.
Reported IC50 for `Cc1nn(C)c2nnc(Nc3ccc(S(=O)(=O)N4CCCC4)cc3)nc12` was > 50 µM

----------
Collected pIC50 values appear next to each entry.
Tested on: MDA-MB-231
MEASUREMENT_NOTES: Cytostatic activity against human MDA-MB-231 cells assessed as decrease in [3H]thymidine incorporation into DNA after 24 hrs by liquid scintillation counting analysis
Type: functional, cell-based
pIC50: −log10 of the molar value.

Use these answered entries as a reference point.
Cc1nn(C)c2nnc(Nc3ccc(S(=O)(=O)NC(CO)C(C)C)cc3)nc12 (stereo not given) | < 3.70
Cc1nn(C)c2nnc(Nc3ccc(S(=O)(=O)N4CCOCC4)cc3)nc12 | < 3.70

Reported pIC50 for `Cc1nn(C)c2nnc(Nc3ccc(S(=O)(=O)NCCO)cc3)nc12` was < 3.70

Reported pIC50 for `Cc1nn(C)c2nnc(Nc3ccc(S(=O)(=O)N4CCNCC4)cc3)nc12` was 3.99

Reported pIC50 for `Cc1nn(C)c2nnc(Nc3ccc(S(=O)(=O)N4CCCC4)cc3)nc12` was < 3.70
